# protocol: Cell viability by trypan blue dye exclusion
# run.conditions: mouse, TABX1A cells (TAMH hepatocyte line with Bcl-xL antisense)
endpoint.name: viability at 48 h, 5 µM

Enquiry: Input COc1cccc2c1C(=O)c1c(O)c3c(c(O)c1C2=O)C[C@@](O)(C(=O)CO)C[C@@H]3O[C@H]1C[C@H](N)[C@H](O)[C@H](C)O1 [doxorubicin] , output reported viability at 48 h, 5 µM.
Return: 20%

###

# protocol: Cell viability by trypan blue dye exclusion
# run.conditions: mouse
endpoint.name: viability at 48 h, 5 µM (%)
The reply should contain only the number, in %.

Enquiry: Input `COc1cccc2c1C(=O)c1c(O)c3c(c(O)c1C2=O)C[C@@](O)(C(=O)CO)C[C@@H]3O[C@H]1C[C@H](N)[C@H](O)[C@H](C)O1` , output reported viability at 48 h, 5 µM.
Return: 50

###

# protocol: in vitro
# run.conditions: mouse
endpoint.name: viability at 5 µM (%)
The reply should contain only the number, in %.

Enquiry: Input `COc1cccc2c1C(=O)c1c(O)c3c(c(O)c1C2=O)C[C@@](O)(C(=O)CO)C[C@@H]3O[C@H]1C[C@H](N)[C@H](O)[C@H](C)O1` , output reported viability at 5 µM.
Return: 88
